B1: TMEM175 (parent)
chain: ALLHQAETLQPSVWFGGREHVLMF

- Variants of: B1
- ASSAY_REMARKS: protein stability index of a GFP-peptide fusion (GPS, HEK-293T) (PSI 1-6); higher = more stable;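 also: lentivirally expressed fusions sorted by FACS into six bins by GFP to DsRed ratio, PSI derived from sequencing read proportions per bin multiplied by bin number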
- EXPERIMENTAL_SETUP: c terminus: a fixed tail appended
So basically: protein stability index at 3 or higher? That is condition met. Lower than 3? That is condition not met.

// below: answered variants
- VARIANT_SPEC: "L9W"
  CATEGORY: "condition not met"
- VARIANT_SPEC: "V13P"
  CATEGORY: "condition not met"
- VARIANT_SPEC: "S12P"
  CATEGORY: "condition met"
- VARIANT_SPEC: "L9R"
  CATEGORY: "condition not met"
- VARIANT_SPEC: "H4W"
  CATEGORY: "condition met"
- VARIANT_SPEC: "V21R"
  CATEGORY: "condition not met"

**Query** Decide: is the reported value of protein stability index for W14Q equal to or greater than 3?
**Result** condition not met

**Query** I'd appreciate it if you could say whether H4N has protein stability index at least equal to 3.
**Result** condition not met

**Query** Exam item: decide whether the reported protein stability index for V13W is at least 3.
**Result** condition not met

**Query** API: above_or_equal(metric=protein stability index, cutoff=3) for item M23K
**Result** condition not met

**Query** Confirm if protein stability index reported for the variant G16M is 3 or above.
**Result** condition not met

**Query** In plain terms: is recorded protein stability index at least 3 for R18C ?
**Result** condition met
